// reported selectivity for BACE2 over BACE1 per item
# measurement target: BACE2 enzyme (Homo sapiens, UniProt Q9Y5Z0)
# Sequence (Q9Y5Z0 63-518): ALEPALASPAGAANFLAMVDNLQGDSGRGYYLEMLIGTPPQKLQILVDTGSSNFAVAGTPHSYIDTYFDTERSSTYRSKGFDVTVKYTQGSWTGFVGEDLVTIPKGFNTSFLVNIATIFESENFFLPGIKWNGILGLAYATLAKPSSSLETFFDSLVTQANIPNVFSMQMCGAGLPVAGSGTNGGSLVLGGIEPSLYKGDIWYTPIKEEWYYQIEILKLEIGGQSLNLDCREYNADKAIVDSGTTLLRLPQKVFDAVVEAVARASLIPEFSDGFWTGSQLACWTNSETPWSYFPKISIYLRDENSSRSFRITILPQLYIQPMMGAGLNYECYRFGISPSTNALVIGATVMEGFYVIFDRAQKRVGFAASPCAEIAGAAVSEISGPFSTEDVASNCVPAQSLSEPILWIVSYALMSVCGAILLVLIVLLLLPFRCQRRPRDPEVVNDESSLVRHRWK
# assay name: BACE2 enzyme inhibition, Ki from kinetic data under tight-binding conditions
# Assay type: biochemical
# condition context: ratio of Ki values
Field format: number, assumed fold, no unit text.

COc1cccc([C@@H](NC[C@@H](O)[C@H](Cc2ccccc2)NC(=O)c2cc(C)cc(C(=O)N(C)[C@H](C)c3ccccc3)c2)[C@H](C)O)c1 | 34

Prompt: Item under review: COc1cccc([C@@H](NC[C@@H](O)[C@H](Cc2ccccc2)NC(=O)c2cccc(C(=O)N(C)[C@H](C)c3ccccc3)c2)[C@H](C)O)c1 . Reported selectivity for BACE2 over BACE1?
Response: 54
